All values here come from ChEMBL document CHEMBL2029291.

assay: Selectivity index, ratio of IC50 for mouse J774.1 cells to IC50 for Trypanosoma brucei brucei TC221
Assay type: toxicity
particulars: read-out: Ratio IC50
For each entry below, report its selectivity ratio value.

What selectivity ratio value was documented for this molecule, "CCCCn1cc(C(=O)O)c(=O)c2cc(F)c(N3CCC(C(N)=O)CC3)cc21" ?
> 2.5

I would be grateful if you could share the reported selectivity ratio for "NC(=O)C1CCN(c2cc3c(cc2F)c(=O)c(C(=O)NCc2ccco2)cn3C2CC2)CC1" .
> 11.2

Tell me the measured selectivity ratio of "CCCn1cc(C(=O)O)c(=O)c2cc(F)c(N3CCC(C(N)=O)CC3)cc21" , please.
> 2.5

Tell me the measured selectivity ratio of "CCCCn1cc(C(=O)NCc2ccccc2)c(=O)c2cc(F)c(N(C)C)cc21" , please.
> 147

Record request: selectivity ratio value, item "CCCCn1cc(C(=O)NCc2ccc(OC)c([N+](=O)[O-])c2)c(=O)c2cc(F)c(N3CCC(C(N)=O)CC3)cc21"
> 32.6

Quick one: selectivity ratio of "CCCCn1cc(C(=O)O)c(=O)c2cc(F)c(N3CCOCC3)cc21" ?
> 5.21

Reported selectivity ratio, molecule "CCn1cc(C(=O)O)c(=O)c2ccc(C(F)(F)F)cc21" : ____
> 2.5

Would you mind telling me what selectivity ratio value was observed for "NC(=O)C1CCN(c2cc3c(cc2F)c(=O)c(C(=O)O)cn3C2CC2)CC1" ?
> 2.5

Item under review: "CCCn1cc(C(=O)O)c(=O)c2cc(F)c(Cl)cc21" . Reported selectivity ratio?
> 2.5
